assay: LC retention time (Atlantis T3, 5-95% MeOH gradient, 0.1% formic acid); higher = more retained / less polar
Reported LC retention time values for the following compounds.
Write down the numeric answer in min and omit the unit.

Consider the worked cases shown below.
>  <COMPOUND>
C[NH+]1CCN(C2=Nc3cc(Cl)ccc3Nc3ccccc32)CC1 [Clozapin]

>  <MEASURED_NUMBER>
14.4

$$$$
>  <COMPOUND>
CCc1cccc(C)c1N(C(=O)C(=O)[O-])C(C)COC (stereo not given) [Metolachlor-OXA]

>  <MEASURED_NUMBER>
21.3

$$$$
>  <COMPOUND>
COc1ccc(C(C[N+](C)(C)[O-])C2(O)CCCCC2)cc1 (stereo not given) [Venlafaxine-N-Oxide]

>  <MEASURED_NUMBER>
14.6

$$$$

Req: Need LC retention time, item C[NH+]1CCN2c3ccccc3Cc3ccccc3C2C1 (stereo not given) [Mianserin]
Resp: 14.5

Req: Need LC retention time, item CS(=O)(=O)c1cc(C(F)(F)F)ccc1C(=O)c1cnoc1C1CC1 [Isoxaflutole]
Resp: 18.3

Req: Need LC retention time, item COc1cc(OC)nc(NC(=O)[N-]S(=O)(=O)N(C)S(C)(=O)=O)n1 [Amidosulfuron]
Resp: 18

Req: Need LC retention time, item CCCCc1[nH+]cc(C=C(Cc2cccs2)C(=O)[O-])n1Cc1ccc(C(=O)[O-])cc1 [Eprosartan]
Resp: 14.6

Req: Need LC retention time, item COCCc1ccc(OCC(O)C[NH2+]C(C)C)cc1 (stereo not given) [Metoprolol]
Resp: 12.3

* * *

Reported absolute recovery values for the following molecules.
assay: absolute recovery over mixed-bed multilayer solid-phase extraction; higher = better recovery; details: surface water; enrichment method: SPE
Write down the numeric answer in % and omit the unit.

Consider the worked cases shown below.
>  <MOLECULE>
CCNc1nc(O)nc(NC(C)C)n1 [Atrazin-2-Hydroxy]

>  <absolute recovery (%)>
98

$$$$
>  <MOLECULE>
COc1c(Cl)ccc(Cl)c1C(=O)[O-]

>  <absolute recovery (%)>
94

$$$$
>  <MOLECULE>
c1ccc2[nH]c(-c3cscn3)nc2c1

>  <absolute recovery (%)>
77.5

$$$$
>  <MOLECULE>
CSc1nc(NC2CC2)nc(NC(C)(C)C)n1

>  <absolute recovery (%)>
98.8

$$$$
>  <MOLECULE>
Cc1[nH]c(=O)n(C(C)(C)C)c(=O)c1Cl

>  <absolute recovery (%)>
96

$$$$

Req: Need absolute recovery, item CN(C)c1nc(=O)n(C2CCCCC2)c(=O)n1C
Resp: 93.7

Req: Need absolute recovery, item OC(Cn1cncn1)(Cn1cncn1)c1ccc(F)cc1F
Resp: 92.8

Req: Need absolute recovery, item Cc1c(N(C)C)c(=O)n(-c2ccccc2)n1C [4-Dimethylaminoantipyrin (=Aminopyrin)]
Resp: 79.5

Req: Need absolute recovery, item CC1(C(=O)[O-])CCC2(C)CCC3(C)C(=CC(=O)C4C5(C)CCC(O)C(C)(C)C5CCC43C)C2C1 (centres undefined)
Resp: 103

Req: Need absolute recovery, item CCN(C)C(=O)Oc1cccc(C(C)[NH+](C)C)c1 (centres undefined)
Resp: 94.7

Req: Need absolute recovery, item O=c1[nH]cc(F)c(=O)[nH]1
Resp: 7.7

* * *

assay: absolute recovery over mixed-bed multilayer solid-phase extraction; higher = better recovery; details: nanopure water; enrichment method: SPE
Kind request: treat 90% as inclusive, so absolute recovery at 90% or higher is condition met, anything lower is condition not met.

>  <COMPOUND>
C[NH+]1CCC23c4c5ccc(O)c4OC2C(O)C=CC3C1C5 (centres undefined)

>  <QUALITATIVE_LABEL>
condition not met

$$$$
>  <COMPOUND>
CCCCC(=O)N(Cc1ccc(-c2ccccc2-c2nnn[n-]2)cc1)C(C(=O)[O-])C(C)C (centres undefined)

>  <QUALITATIVE_LABEL>
condition met

$$$$
>  <COMPOUND>
Nc1ccn(C2OC(CO)C(O)C2O)c(=O)n1 (centres undefined)

>  <QUALITATIVE_LABEL>
condition met

$$$$

Req: Assess whether reported absolute recovery for CCCC(CCC)(C(=O)[O-])C(=O)O sits at 90% or higher.
Resp: condition met
